experiment: Inhibition of HDAC by fluorescence assay
pIC50: −log10 of the molar value.

compoundString	censoringOperator	pIC50
Nc1ccc(C(=O)NCC(=O)c2ccc(C(=O)Nc3ccccc3N)cc2)cc1	=	4.30
Nc1ccccc1NC(=O)c1ccc(C(=O)CNC(=O)c2ccccc2)cc1	<	4.00
Nc1ccc(S(=O)(=O)NCC(=O)c2ccc(C(=O)Nc3ccccc3N)cc2)cc1	=	5.42
Nc1ccccc1NC(=O)c1ccc(C(=O)CNC(=O)c2ccccn2)cc1	=	4.52
Cc1ccc(S(=O)(=O)NCC(=O)c2ccc(C(=O)Nc3ccccc3N)cc2)cc1	=	4.65
Nc1ccccc1NC(=O)c1ccc(CNC(=O)OCc2cccnc2)cc1	=	4.89
Nc1ccccc1NC(=O)c1ccc(C(=O)CNS(=O)(=O)c2cccnc2Cl)cc1	=	4.95
Nc1cc(C(=O)NCC(=O)c2ccc(C(=O)Nc3ccccc3N)cc2)ccn1	=	4.37
Nc1cccc(C(=O)NCC(=O)c2ccc(C(=O)Nc3ccccc3N)cc2)c1	=	4.15
